Tested on: MDA-MB-435
Assay: NCI tumour cell line growth inhibition, 48 h

- COMPOUND: "Cc1ccc(/C(=N\\N=C(N)N)c2ccccc2)cc1"
  CENSORING QUALIFIER: "="
  TGI, µM: 0.631
- COMPOUND: "CCOC(=O)C1(Br)C(c2ccccc2)NC(=O)NC1(C)Br (configuration not stated)"
  CENSORING QUALIFIER: "="
  TGI, µM: 57.3
- COMPOUND: "C=C(CCCCCCCCC)CC(=O)SCCNC(=O)CCNC(=O)C(O)C(C)(C)COP(=O)(O)OP(=O)(O)OCC1OC(n2cnc3c(N)ncnc32)C(O)C1OP(=O)(O)O (configuration not stated)"
  CENSORING QUALIFIER: "="
  TGI, µM: 67.7
- COMPOUND: "CCOC(=O)C1=C(C(=O)c2ccc(C)cc2)C(c2cccc([N+](=O)[O-])c2)C(C(=O)c2ccc(C)cc2)=C(C(=O)OCC)N1"
  CENSORING QUALIFIER: "="
  TGI, µM: 33.2
- COMPOUND: "O=C1c2ccc([N+](=O)[O-])cc2-c2c1c1ccccc1c(=O)n2CCCNCCCNCCCn1c2c(c3ccc([N+](=O)[O-])cc3c1=O)C(=O)c1ccccc1-2"
  CENSORING QUALIFIER: ">"
  TGI, µM: 46.6
- COMPOUND: "COc1ccccc1/C=C/[N+](=O)[O-]"
  CENSORING QUALIFIER: "="
  TGI, µM: 10.5
- COMPOUND: "CCN(CC)CCNc1ccc([N+](=O)[O-])c2sc3ccccc3c(=O)c12"
  CENSORING QUALIFIER: "="
  TGI, µM: 2.32
